Origin of measurements: ChEMBL document CHEMBL1201862

# Tested on: EKVX
# assay.overview: NCI tumour cell line growth inhibition, 48 h
Activity calls are given as the source filed them. Cut-off read from the data, not from the text of the source: active = GI50 up to about 1.1 µM and inactive = higher.
measurement.label: GI50

molecule=CC/C(CC(=O)CCC(=O)Nc1ccccc1[N+](=O)[O-])=N/NC(=O)C[n+]1ccccc1 endpoint_value="> 100 µM (inactive)"
molecule=CN(C)c1cccc(-c2cc(O)c3ccccc3n2)c1 endpoint_value="> 100 µM (inactive)"
molecule=Nc1[nH]nc2ccccc12 endpoint_value="> 100 µM (inactive)"

EKVX / GI50 / `NC1=Nc2ccccc2Sc2nnc(-c3ccc(Cl)cc3)n21` : value?
75.3 µM (inactive)

Would you kindly repeat that for `N#Cc1c(-c2ccccc2)cc(Nc2ccc(F)cc2)n2c1nc1ccccc12` ?
2.09 µM (inactive)

Would you kindly repeat that for C=CC/N=C1\N=C(C)C(C(=O)OCC)S1 (stereo not given) ?
> 100 µM (inactive)

---

# System: U-251
# assay.overview: NCI tumour cell line growth inhibition, 48 h
Activity calls are given as the source filed them. Cut-off read from the data, not from the text of the source: active = GI50 up to about 1.1 µM and inactive = higher.
Write down the outcome that applies. Available outcomes: active, inactive

What outcome does the record of this test show for `CCN(CC)CCn1c(=O)c2ccccc2n2c3c(=O)n(C)c(=O)n(C)c3nc12` ?
inactive

Would you kindly repeat that for `COc1cc(/C=C/C(=O)N[C@@H]2C(=O)N3[C@@H]2SC(C)(C)[C@@H]3C(=O)O)cc(OC)c1OC` ?
inactive

Would you kindly repeat that for `CC(=O)OC[C@@]12C[C@H]3C(=O)C(C)(C)C[C@H]3[C@]1(C)[C@@H](OC(C)=O)[C@]1(O)[C@H]([C@@H](OC(=O)c3ccccc3)[C@@H](C)[C@H]1OC(C)=O)[C@H]2OC(C)=O` ?
inactive

Would you kindly repeat that for `CC1(C)O[C@H]([C@H](O)c2nnc3ccc(Cl)nn23)[C@@H]([C@H]2COC(C)(C)O2)O1` ?
inactive

Would you kindly repeat that for CCCCCCCCCCCCCC(=O)O.O=CC(O)C(O)C(OC1OC(CO)C(O)C(O)C1O)C(O)CO (stereo unspecified) ?
inactive

Would you kindly repeat that for `COc1cc(CCNC2=CC(=O)c3cccnc3C2=O)ccc1O` ?
active

Would you kindly repeat that for `O=C(O)CCCc1cc2c(s1)-c1cccc3cccc-2c13` ?
inactive

Would you kindly repeat that for `O=c1ccc2ccc(S)cc2o1` ?
inactive

Would you kindly repeat that for `NCCCNc1ccc2c(c1)[n+]([O-])c1ccccc1[n+]2[O-]` ?
inactive

Would you kindly repeat that for `N=C(N)N/N=C/c1c(-c2ccccc2)nc2ccn3c(/C=N/N=C(N)N)c(-c4ccccc4)nc3n12` ?
inactive

Would you kindly repeat that for `N#CNc1nc(C(=O)Nc2ccc(Cl)cc2)cc(-c2ccccc2)n1` ?
inactive

Would you kindly repeat that for `CC[C@@H]1CC[C@@H]2[C@H](CC[C@]3(C)[C@@H](O[N+](=O)[O-])CC[C@@H]23)[C@H]1C(C)=O` ?
inactive

---

# reported GI50; entries follow
# Test system: HCT-15
# assay.overview: NCI tumour cell line growth inhibition, 48 h
Number in µM, nothing else.

Answered cases to consult:
compound="COC(=O)C(Cc1ccccc1I)C1=CCC2(CC1)OCCO2 (stereo not given)" measurement_label=GI50 endpoint_value=26.1
compound=COc1cccc(N/C(C)=C2/CCOC2=O)c1 measurement_label=GI50 endpoint_value=5.08
compound="CC(=O)NC1C(OCc2ccccc2)OC(CO)C(O)C1OCC(=O)NC(C)C(=O)NC(CCC(=O)OCCNC(=O)c1cccc2cc3ccccc3nc12)C(N)=O (stereo not given)" measurement_label=GI50 endpoint_value=13.9
compound="COc1c(O)ccc2c1CN1CCc3cc4c(cc3C1C2)OCO4 (stereo not given)" measurement_label=GI50 endpoint_value=21.6
compound=O=[N+]([O-])c1ccc(C2=Nn3c(nnc3-c3ccc(Cl)cc3)SC2)o1 measurement_label=GI50 endpoint_value=2.33

Next compound, GI50 to be filled in.
Any idea what its GI50 is? The compound is CCOC1c2cc(C(C)C)c(O)c(O)c2[C@@]23CCCC(C)(C)C2C1OC3=O (stereo not given in full)
91

---

# reported GI50; entries follow
# Tested on: PC-3
# assay.overview: NCI tumour cell line growth inhibition, 48 h
Active and inactive are the calls of the source. Cut-off read from the data, not from the text of the source: active = GI50 up to about 1.1 µM and inactive = higher. Peptide text beside a SMILES is read from it. * marks the point of attachment. Boc = CC(C)(C)OC(=O)*; OBn = c1ccc(CO*)cc1

Answered cases to consult:
compound="CC(C)CC(NC(=O)OC(C)(C)C)C(=O)NC(CC(=O)OCc1ccccc1)C(N)=O (stereo not drawn) (Boc-Leu-Asp(OBn)-NH2; configuration not given here)" system_tested=PC-3 endpoint_value="> 100 µM (inactive)"
compound=Cc1cccc(Br)[n+]1[O-] system_tested=PC-3 endpoint_value="> 100 µM (inactive)"
compound=Nc1[nH]nc2ccccc12 system_tested=PC-3 endpoint_value="> 100 µM (inactive)"
compound=COc1cc(C2=C(c3cc(OC)c4ccccc4c3OC)C(=O)c3ccccc3C2=O)c(OC)c2ccccc12 system_tested=PC-3 endpoint_value="> 100 µM (inactive)"
compound=O=C1/C(=C/c2cccc(O)c2)COc2ccccc21 system_tested=PC-3 endpoint_value="7.83 µM (inactive)"
compound="COC(=O)C12OC(C)(C(CC(=O)OC(C)(C)C)C1=O)C1C(=O)N(c3ccccc3)C(=O)C12 (stereo unspecified)" system_tested=PC-3 endpoint_value="> 100 µM (inactive)"

Any idea what its GI50 is? The compound is COC(=O)C1=C(C(=O)OC)C2(c3ccccc3)c3ccccc3C(=O)C1N2C1CCCCC1 (stereo unspecified)
10.6 µM (inactive)

Would you kindly repeat that for COc1cc2c(cc1OC)C(Cl)C(c1ccc(F)cc1)=C2Cl (stereo unspecified) ?
12.4 µM (inactive)

Would you kindly repeat that for `CCCSc1ccc2[nH]c(N3C(=O)/C(=C/c4cc(OC)c(OC)c(OC)c4)N=C3c3ccccc3)cc2c1` ?
16.1 µM (inactive)

Would you kindly repeat that for `N=c1oc2c(Cl)cc(Cl)cc2cc1C(=O)Nc1ccccn1` ?
52 µM (inactive)

Would you kindly repeat that for `Fc1ccccc1-c1nn2c(C34CC5CC(CC(C5)C3)C4)nnc2s1` ?
> 100 µM (inactive)

---

# System: M14
# assay.overview: NCI tumour cell line growth inhibition, 48 h
Active and inactive are the calls of the source. Rule as the data show it: active = GI50 up to about 1.1 µM and inactive = higher.
Write down the outcome that applies. Available outcomes: active, inactive

Worked examples, 2 molecules total:
molecule=COc1ccc2nc3ccccc3c(NCCCCCCN(CCCl)CCCl)c2c1 label_class=active
molecule=O=c1[nH]c2nccnc2c2c([N+](=O)[O-])cccc12 label_class=inactive

What outcome does the record of this test show for `CC(=O)O[C@H]1C(=O)[C@@]2(C)[C@H]([C@H](OC(=O)c3cccc([N+](=O)[O-])c3)[C@]3(O)C[C@H](OC(=O)[C@H](O)[C@@H](NC(=O)c4ccccc4)c4ccccc4)C(C)=C1C3(C)C)[C@]1(OC(C)=O)CO[C@@H]1C[C@@H]2O` ?
active

Would you kindly repeat that for N#CC(NC12CC3CC(CC(C3)C1)C2)c1ccccc1C(F)(F)F (stereo unspecified) ?
inactive

Would you kindly repeat that for `CC(C)C(=O)NC(=S)Nc1ccc([N+](=O)[O-])cc1C#N` ?
inactive

Would you kindly repeat that for `O=c1[nH]c2ccccc2c2oc(-c3ccccc3)nc12` ?
inactive

Would you kindly repeat that for `CN(C)C(=S)/N=c1\ssc(=S)n1Cc1ccccc1` ?
active

Would you kindly repeat that for `O=S1(=O)CCN(Cc2ccccn2)CC1` ?
inactive

Would you kindly repeat that for `O=C1/C(=C/c2ccccc2)CCC/C1=C\c1ccc(O)c(CN2CCCCC2)c1` ?
inactive

Would you kindly repeat that for `COc1cc2ncnc(NS(=O)(=O)c3cc4ccccc4s3)c2cc1OC` ?
inactive

Would you kindly repeat that for `C=CCC(CC=O)(C(=O)OCC)C(=O)OCC` ?
inactive

---

# Tested on: LOX IMVI
# assay.overview: NCI tumour cell line growth inhibition, 48 h
The source made the active and inactive calls. No stated cut-off is given here; in the data, active = GI50 up to about 1.1 µM and inactive = higher.
Write down the outcome that applies. Available outcomes: label 1 for active, label 0 for inactive

Worked examples, 5 compounds total:
compound=COc1ccc(CNc2nc3cc(C(F)(F)F)ccc3nc2C)cc1OC label_class="label 0"
compound=N[C@@H](Cc1ccc2oc3cc(=O)c4ccccc4c-3nc2c1)C(=O)O label_class="label 0"
compound=CN(C)C(=S)/N=c1\ssc(=S)n1Cc1ccccc1 label_class="label 1"
compound=Cc1ccc(NNc2cc(=O)[nH]c(=O)[nH]2)cc1Cl label_class="label 0"
compound="C=CC/N=C1\\N=C(C)C(C(=O)OCC)S1 (stereo unspecified)" label_class="label 0"

Okay, next one:
What outcome does the record of this test show for Cc1cccc2c1CC(C1OC(=O)c3ccccc31)C2=O (stereo unspecified) ?
label 0

---

# Test system: HT-29
# assay.overview: NCI tumour cell line growth inhibition, 48 h
Activity calls are given as the source filed them. No stated cut-off is given here; in the data, active = GI50 up to about 1.1 µM and inactive = higher.
Write down the outcome that applies. Available outcomes: active, inactive

Worked examples, 6 compounds total:
compound=CN1C(Cl)=NS(=O)(=O)c2ccccc21 label_class=inactive
compound=Cc1nc(C(N)=S)sc1C(=O)CC(=O)C(=O)Nc1cccc(Cl)c1C label_class=inactive
compound=O=C1c2cc([N+](=O)[O-])ccc2-c2cccc(F)c21 label_class=inactive
compound="Cc1cccc2c1CC(C1OC(=O)c3ccccc31)C2=O (stereo unspecified)" label_class=inactive
compound="COc1ccc(/C(=N\\NC(=O)C(N)=O)C(c2ccc(OC)cc2)C2(O)C(=O)Nc3c(Cl)cccc32)cc1 (stereo unspecified)" label_class=inactive
compound=C=C(C(=O)OC)[C@H]1CC/C(C)=C/CC[C@@](C)(O)C=CC[C@@]2(C)O[C@@H]2C1 label_class=inactive

Okay, next one:
What outcome does the record of this test show for `S=C(N/N=C(/c1ccccc1)c1ccccn1)N1CCCCC1` ?
active
